- ASSAYED SYSTEM: HLA-B*27:05
- PROTOCOL DESCRIPTION: IEDB peptide-MHC binding, purified MHC/direct/fluorescence; filed as Kd, often an IC50 or EC50 that approximates it; bounds were set here for any values at or beyond the usual limits of such assays
- RUN PARAMETERS: source organism: Camelpox virus CMS
PROPERTY LABEL: Kd

Query block: Could you tell me which Kd is on file for MPAYIRNTL ?
Result block: ≥ 20 µM

====

- ASSAYED SYSTEM: HLA-A*31:01
- PROTOCOL DESCRIPTION: IEDB peptide-MHC binding, purified MHC/direct/fluorescence; filed as Kd, often an IC50 or EC50 that approximates it; bounds were set here for any values at or beyond the usual limits of such assays
- RUN PARAMETERS: source organism: Giardia lamblia ATCC 50803
pKd: −log10 of the molar value.
PROPERTY LABEL: pKd

# SEQUENCE DATA, ASSAYED SYSTEM, RESULT
rows = [
    ("IARLVYKAR", "HLA-A*31:01", 7.45),
    ("EIRHRSGIQ", "HLA-A*31:01", "≤ 4.70"),
]

Pending sequence:
Query block: Could you tell me which pKd is on file for WSDLNTTDF ?
Result block: ≤ 4.70
